Quick reference: activity coefficient of the listed items.
experiment: activity coefficient (dimensionless); of the first substance listed, at infinite dilution; xn = mol fraction of the nth substance listed; settings: 358.15 K; 101 kPa; Liquid; Chromatography; x1 = 0
Field format: numeric only.

Solved cases (5 shown):
C1CCCCC1 [cyclohexane] + O=S(=O)([N-]S(=O)(=O)C(F)(F)F)C(F)(F)F.OCCC[n+]1ccccc1	16.7
CCCCCCCCCC [decane] + O=S(=O)([N-]S(=O)(=O)C(F)(F)F)C(F)(F)F.OCCC[n+]1ccccc1	168
Cc1ccccc1 [toluene] + O=S(=O)([N-]S(=O)(=O)C(F)(F)F)C(F)(F)F.OCCC[n+]1ccccc1	2.4
C1CCOC1 [tetrahydrofuran] + O=S(=O)([N-]S(=O)(=O)C(F)(F)F)C(F)(F)F.OCCC[n+]1ccccc1	0.812
C1COCCO1 [1,4-dioxane] + O=S(=O)([N-]S(=O)(=O)C(F)(F)F)C(F)(F)F.OCCC[n+]1ccccc1	0.621

# evaluate next
What activity coefficient value was documented for this molecule, CCO [ethanol] + O=S(=O)([N-]S(=O)(=O)C(F)(F)F)C(F)(F)F.OCCC[n+]1ccccc1 ?
0.984

---

assay: activity coefficient (dimensionless); of the first substance listed, at infinite dilution; xn = mol fraction of the nth substance listed; settings: 368.15 K; 101 kPa; Liquid; Chromatography; x1 = 0
Let's look at some molecules and their measured activity coefficient.

Worked set:
CCCCCCCCCC [decane] + O=S(=O)([N-]S(=O)(=O)C(F)(F)F)C(F)(F)F.OCCC[n+]1ccccc1	150
CCc1ccccc1 [ethylbenzene] + O=S(=O)([N-]S(=O)(=O)C(F)(F)F)C(F)(F)F.OCCC[n+]1ccccc1	3.82
CCCCCCCC [octane] + O=S(=O)([N-]S(=O)(=O)C(F)(F)F)C(F)(F)F.OCCC[n+]1ccccc1	67.5

Let us examine a further case.
// activity coefficient lookup, key: CO [methanol] + O=S(=O)([N-]S(=O)(=O)C(F)(F)F)C(F)(F)F.OCCC[n+]1ccccc1
0.725

---

Some molecules, each annotated with its measured activity coefficient.
assay: activity coefficient (dimensionless); of the first substance listed, at infinite dilution; xn = mol fraction of the nth substance listed; details: 368.15 K; 101 kPa; Liquid; Chromatography; x1 = 0
Please give only the number in your answer, with no unit.

CCCOCCC [dipropyl ether] + O=S(=O)([N-]S(=O)(=O)C(F)(F)F)C(F)(F)F.OCCC[n+]1ccccc1	8.75
C1CCCC1 [cyclopentane] + O=S(=O)([N-]S(=O)(=O)C(F)(F)F)C(F)(F)F.OCCC[n+]1ccccc1	10.4
C1CCCCC1 [cyclohexane] + O=S(=O)([N-]S(=O)(=O)C(F)(F)F)C(F)(F)F.OCCC[n+]1ccccc1	15.5
CCCC(C)=O [pentan-2-one] + O=S(=O)([N-]S(=O)(=O)C(F)(F)F)C(F)(F)F.OCCC[n+]1ccccc1	1.01
CCO [ethanol] + O=S(=O)([N-]S(=O)(=O)C(F)(F)F)C(F)(F)F.OCCC[n+]1ccccc1	0.949

Would you kindly share the measured activity coefficient for Cc1ccc(C)cc1 [1,4-dimethylbenzene] + O=S(=O)([N-]S(=O)(=O)C(F)(F)F)C(F)(F)F.OCCC[n+]1ccccc1 ?
3.64

Field entry: c1ccsc1 [thiophene] + O=S(=O)([N-]S(=O)(=O)C(F)(F)F)C(F)(F)F.OCCC[n+]1ccccc1
1.31
